These data points were gathered from patent US5175158A.

# log10(ED50) per entry
- Tested on: acetylcholine activity on heart rate
- assay-remarks: Inhibition of acetylcholine activity on heart rate in the guinea pig
- Format: in vivo
- condition-details: Cavia porcellus, iv, 5 min; anaesthetised guinea pig; 5 minutes after test substance; 10 microgram/kg acetylcholine i.v. and i.a.; heart rate by ECG; read-out: log ED50, Heart (converted)
Remember, log10 of ED50, in µmol/kg.

- compound: "CN1CCC(CCCC2CCN(CC(=O)N3c4ccccc4C(=O)Nc4cccnc43)CC2)CC1"
  log10(ED50): -0.45
- compound: "CCN(CC)CC1CCCCN1CC(=O)N1c2ccccc2C(=O)Nc2cccnc21 (stereo not shown) [Substance E, reference compound]"
  log10(ED50): 0.16
- compound: "CN1[C@@H]2CC[C@H]1CC(OC(=O)C(CO)c1ccccc1)C2 (stereo partly shown)"
  log10(ED50): -1.70
- compound: "CN1CCN(CC(=O)N2c3ccccc3C(=O)Nc3cccnc32)CC1"
  log10(ED50): 0.15
- compound: "Cc1scc2c1N(C(=O)CN1CCC(CCCN3CCCCC3)CC1)c1ccccc1NC2=O"
  log10(ED50): -0.91
- compound: "O=C1Nc2cccnc2N(C(=O)CN2CCC(CCCCN3CCCCC3)CC2)c2ccccc21"
  log10(ED50): -1.06

Please turn your attention to the following entry.
## Task Respond only with log10(ED50) recorded for `O=C1Nc2cccnc2N(C(=O)CN2CCC(CCCN3CCCCC3)CC2)c2ccccc21`
## Result -0.91
